- TESTED_SYSTEM: Cytochrome P450 1A2 (Homo sapiens, UniProt P05177);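 further: PubChem cytochrome P450 panel assay, CYP1A2 panel member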
- Sequence (P05177 whole entry): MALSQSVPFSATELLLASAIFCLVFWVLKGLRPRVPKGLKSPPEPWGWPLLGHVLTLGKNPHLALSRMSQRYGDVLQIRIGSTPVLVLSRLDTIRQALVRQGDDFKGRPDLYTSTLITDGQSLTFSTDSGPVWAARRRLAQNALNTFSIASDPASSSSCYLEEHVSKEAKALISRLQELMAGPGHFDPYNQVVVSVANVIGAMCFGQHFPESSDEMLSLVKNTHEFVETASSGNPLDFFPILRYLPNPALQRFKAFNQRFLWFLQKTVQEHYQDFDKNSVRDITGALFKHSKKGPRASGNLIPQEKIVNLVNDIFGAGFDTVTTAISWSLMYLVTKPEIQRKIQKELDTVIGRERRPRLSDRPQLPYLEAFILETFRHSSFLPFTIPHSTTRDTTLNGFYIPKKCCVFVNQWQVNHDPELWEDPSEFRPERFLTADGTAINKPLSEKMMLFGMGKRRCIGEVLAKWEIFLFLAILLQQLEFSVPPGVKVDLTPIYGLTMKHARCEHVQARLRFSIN
Active and inactive are the calls of the source.
Listed next: entries and their corresponding AC50.

Reference set, count: 6
O=C(Nc1ccccc1)N1CCCC2(CCN(C(=O)c3csnn3)CC2)C1
25.1 µM (inconclusive)
C=CCn1c(SCC(=O)N2CC(=O)Nc3ccccc32)nc2scc(-c3ccccc3)c2c1=O
14.1 µM (inconclusive)
O=C(Oc1ccc(S(=O)(=O)F)cc1F)c1ccccc1Cl
5.01 µM (inconclusive)
Cc1ccc2[nH]c(SCc3ccc([N+](=O)[O-])cc3)nc2c1
1.12 µM (active)
COc1cc(C2C(C#N)=C(N)OC3=C2C(=O)CCC3)c([N+](=O)[O-])cc1OC (configuration not stated)
31.6 µM (inconclusive)
NC(=S)c1ccc[n+]([C@@H]2O[C@@H](COP(=O)([O-])OP(=O)(O)OC[C@@H]3O[C@@H](n4cnc5c(N)ncnc54)[C@@H](OP(=O)(O)O)[C@H]3O)[C@@H](O)[C@H]2O)c1
39.8 µM (inconclusive)

Entry CCC(=O)Nc1nnc(C(C)(C)C)s1 — recorded AC50 = 17.8 µM (inconclusive)

Sure, the documented AC50 for Cc1c(NC(=O)CN2C(=O)C3C4C=CC(C4)C3C2=O)c(=O)n(-c2ccccc2)n1C (configuration not stated) is 39.8 µM (inconclusive)
